The reported numbers originate from ChEMBL document CHEMBL1149279.

Items are presented alongside their recorded Ki.
- tgt: UniProt P0DMS8
- Sequence (P0DMS8 whole entry): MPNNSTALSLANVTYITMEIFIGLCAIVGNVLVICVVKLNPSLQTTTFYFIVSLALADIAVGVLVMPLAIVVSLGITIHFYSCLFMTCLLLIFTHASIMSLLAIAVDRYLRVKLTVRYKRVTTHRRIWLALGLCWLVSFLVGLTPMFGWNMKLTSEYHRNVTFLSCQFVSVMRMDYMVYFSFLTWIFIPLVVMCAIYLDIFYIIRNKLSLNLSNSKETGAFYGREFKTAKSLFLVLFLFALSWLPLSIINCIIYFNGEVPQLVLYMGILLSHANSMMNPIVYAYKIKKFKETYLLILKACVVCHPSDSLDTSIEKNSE
- test-summary: Displacement of [125I]AB-MECA from human adenosine A3 receptor expressed in HEK293 cells
- Format: cell-based

Solved entries (count: 3):
{"columns": ["structure", "Ki"],
 "data": [
  ["O=C(Nc1cc(-c2ccccc2)nc(-c2ccccc2)n1)C1CCCC1", "170 nM (antagonist)"],
  ["O=C(Nc1cc(-c2ccccc2)nc(-c2ccccc2)n1)C1CC1", "25 nM (antagonist)"],
  ["CCCC(=O)Nc1cc(-c2ccccc2)nc(-c2ccccc2)n1", "167 nM (antagonist)"]
]}

Here is another compound to look at.
**Query** Please indicate Ki recorded for O=C(Nc1nc(-c2ccccc2)cc(-c2ccccc2)n1)C1CC1
**Result** 676 nM (antagonist)
